assay: chemical genetic growth profiling, strain panel (AID 1159580);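 further: tested at 20 µM; growth read once vehicle control cultures reached saturation at 30 °C; 1 = growth at the plate median or of vehicle wells; lower values mean less growth of the strain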; settings: S. cerevisiae deletion strains, growth OD, locus YJL095W, strain BCK1 (second series), active compounds read low
In all, about 5,500 compounds went through this assay and about 2,000 (36%) were called active. Inconclusive results (about 18%) are left out. The list shows a part of the results.

- Molecule: "COc1cc2c(cc1OC)C1(O)C(=O)c3ccc(O)c(C(=O)O)c3OC1CO2 (stereo unspecified)"
  normalized growth: 0.989
- Molecule: "COc1ccc2c(c1)OCC(Cc1ccc(OC)c(O)c1)C2=O (stereo unspecified)"
  normalized growth: 0.94
- Molecule: "COC(=O)/C(C)=C\\CC12OC(C)(C)C3CC(C=C4C(=O)c5c(OC)c6c(c(CC=C(C)C)c5OC431)OC(C)(CCC=C(C)C)C=C6)C2=O (stereo unspecified)"
  normalized growth: 1.01
- Molecule: "O=C(O)C1CCCNC1 (stereo unspecified)"
  normalized growth: 1.02
- Molecule: "COc1ccc2c(c1)OCC(Cc1ccc(OC)c(OC)c1)C2=O (stereo unspecified)"
  normalized growth: 0.979
- Molecule: "COc1ccc2c(c1)OCC(Cc1ccc(O)c(OC)c1)C2=O (stereo unspecified)"
  normalized growth: 0.98

###

assay: chemical genetic growth profiling, strain panel (AID 1159580);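 further: tested at 20 µM; growth read once vehicle control cultures reached saturation at 30 °C; 1 = growth at the plate median or of vehicle wells; lower values mean less growth of the strain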; settings: S. cerevisiae deletion strains, growth OD, locus YAL026C, strain drs2, active compounds read low
About 2,000 (36%) of roughly 5,500 compounds were called active. Not shown: some 18% with an inconclusive outcome. Some of the results follow.
Measured Parameter: normalized growth

- Compound: "CC(=O)C1CC[C@H]2C3CC[C@H]4C[C@H](O)CC[C@]4(C)C3CC[C@]12C (stereo not given in full)"
  Reported: "0.849 (active)"
- Compound: "CC12CCC3C(=CCc4cc(O)ccc43)C1CCC2=O (stereo not given)"
  Reported: "0.992 (inactive)"
- Compound: "C[C@]12CCC3c4ccc(O)cc4CCC3C1CCC2=O (stereo not given in full)"
  Reported: "0.993 (inactive)"
- Compound: "CC(=O)Oc1ccc2c(c1)CCC1C2CC[C@]2(C)C(=O)CCC12 (stereo not given in full)"
  Reported: "0.992 (inactive)"
- Compound: "CC(=O)OCC(=O)[C@@]1(O)CCC2C3CCC4=CC(=O)C=CC4(C)C3[C@@H](O)C[C@@]21C (stereo not given in full)"
  Reported: "1 (inactive)"

###

experiment: chemical genetic growth profiling, strain panel (AID 1159580);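 further: tested at 20 µM; growth read once vehicle control cultures reached saturation at 30 °C; 1 = growth at the plate median or of vehicle wells; lower values mean less growth of the strain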; settings: S. cerevisiae deletion strains, growth OD, locus YKR091W, strain srl3
In all, about 5,500 compounds went through this assay and about 2,000 (36%) were called active. Roughly 18% stayed inconclusive and do not appear here. Cut-off read from the data, not from the text of the source: active = normalized growth mostly below about 0.91 (no sharp cut-off); inconclusive = no clear call, values can overlap the other calls; inactive = mostly above about 0.92. The list shows a part of the results.
Possible outcomes: T for active, F for inactive

- Molecule: "COc1cc(NS(C)(=O)=O)ccc1Cc1c2ccccc2nc2ccccc12"
  Answer Label: "F"
- Molecule: "Clc1ccccc1CN1CCc2sccc2C1"
  Answer Label: "F"
- Molecule: "NCCCCCC(=O)O"
  Answer Label: "F"
- Molecule: "NC(N)=NCCCCN=C(N)N"
  Answer Label: "F"
- Molecule: "CC(=O)O[C@H]1C[C@@]2(C)[C@@H](C[C@@H](O)C3[C@]2(C)CC[C@H]2[C@H](C)[C@H](O)CC[C@]32C)/C1=C(/CCC=C(C)C)C(=O)O (some centres not stated)"
  Answer Label: "F"
- Molecule: "Clc1ccc(C(c2ccccc2Cl)C(Cl)Cl)cc1 (configuration not stated)"
  Answer Label: "F"
- Molecule: "COc1ccc(-c2oc3cc(OC)c(OC)c(OC)c3c(=O)c2OC)cc1"
  Answer Label: "F"
- Molecule: "COC(=O)[C@H](c1ccccc1Cl)N1CCc2sccc2C1"
  Answer Label: "F"
- Molecule: "C=C1C(=O)[C@]23[C@H](O)[C@H]1CC[C@H]2[C@@]12CO[C@]3(O)[C@H](O)[C@@H]1C(C)(C)CC[C@@H]2O"
  Answer Label: "F"
- Molecule: "CC(=O)O[C@]1(C)CC[C@@]23CC1C(C)(C)[C@@H]2CC[C@H]3C"
  Answer Label: "F"
- Molecule: "CC(O)(P(=O)(O)O)P(=O)(O)O"
  Answer Label: "F"
- Molecule: "CC1(C)N([O-])[N+](=O)C1(C)Br (configuration not stated)"
  Answer Label: "F"
- Molecule: "NCCCCC(=O)O"
  Answer Label: "F"
- Molecule: "Cc1onc(-c2ccccc2)c1-c1ccc(S(N)(=O)=O)cc1"
  Answer Label: "F"
- Molecule: "COc1cc(C)c2c(=O)cc(-c3ccccc3)oc2c1"
  Answer Label: "F"
- Molecule: "CC(C)/C(O)=C1/C(=O)O[C@@H](c2ccoc2)[C@]2(C)C(O)[C@@H](O)[C@@]34OC5(C)OC67CC(C)(C(O)[C@]6(O)[C@@H](O)[C@]3(O5)C12)[C@H](CC(=O)O)[C@]74C (some centres not stated)"
  Answer Label: "F"
- Molecule: "N[C@@H](C(=O)O)[C@@H](O)[C@H](O)[C@H](O)CO"
  Answer Label: "F"
- Molecule: "CC(=O)OCC(=O)[C@@]1(O)CCC2C3CCC4=CC(=O)C=CC4(C)C3[C@@H](O)C[C@@]21C (some centres not stated)"
  Answer Label: "F"
- Molecule: "NC(C(=O)O)C(O)C(=O)O (configuration not stated)"
  Answer Label: "F"
- Molecule: "CCCNC(=O)NS(=O)(=O)c1ccc(Cl)cc1"
  Answer Label: "F"
- Molecule: "Cc1oncc1C(=O)Nc1ccc(C(F)(F)F)cc1"
  Answer Label: "F"
- Molecule: "C[C@@H]1CC[C@H]2C(C)(C)C3CC12CC[C@@]3(C)O (some centres not stated)"
  Answer Label: "F"
- Molecule: "O=C(O)C(O)C(O)C(=O)O (configuration not stated)"
  Answer Label: "F"
- Molecule: "NCCCNCCSP(=O)(O)O"
  Answer Label: "F"
- Molecule: "C[C@H]1C[C@@H](O)[C@]2(O)[C@@]13CC(=O)OC[C@@]2(C)[C@](C)(O)C(=O)C3"
  Answer Label: "F"
- Molecule: "CC1OC(O[C@H]2/C=C/C=C/C=C/C=C/C=C/C=C/C=C/[C@H](C)[C@@H](O)[C@@H](C)[C@H](C)OC(=O)CC(O)CC(O)CCC(O)C(O)CC(O)C[C@]3(O)C[C@H](O)C(C(=O)O)C(C2)O3)C(O)[C@H](N)C1O (some centres not stated)"
  Answer Label: "F"
- Molecule: "COC(=O)[C@@H]1OC(=O)C2OC23[C@@]1(C)CCC1[C@@]2(C)CCC(=O)C(C)(C)C2C[C@@H](OC(C)=O)[C@]13C (some centres not stated)"
  Answer Label: "F"
- Molecule: "CC(C)c1nc(N(C)S(C)(=O)=O)nc(-c2ccc(F)cc2)c1/C=C/[C@@H](O)C[C@@H](O)CC(=O)O"
  Answer Label: "F"
- Molecule: "CC1CCC(NC(=O)N(CCCl)N=O)CC1 (configuration not stated)"
  Answer Label: "T"
- Molecule: "CN(C)C(=O)Oc1ccc[n+](C)c1"
  Answer Label: "F"
- Molecule: "O=NN(CCCl)C(=O)NCCCl"
  Answer Label: "F"
- Molecule: "CC(C)(S)[C@@H](N)C(=O)O"
  Answer Label: "F"
- Molecule: "CC1C/C=C/C=C/C=C/C=C/C(O[C@@H]2O[C@H](C)[C@@H](O)[C@H](N)[C@@H]2O)CC2OC(O)(CC(O)CC3OC3/C=C/C(=O)O1)CC(O)C2C(=O)O (some centres not stated)"
  Answer Label: "F"
- Molecule: "CN1CCC[C@@H]1CCO[C@](C)(c1ccccc1)c1ccc(Cl)cc1"
  Answer Label: "F"
- Molecule: "O=C(O)CCCCCCCC(=O)O"
  Answer Label: "F"
- Molecule: "CCN1C[C@@]2(COC)C3[C@@H](OC)[C@H]4[C@@H]1[C@]3(C(OC)C[C@H]2O)C1C[C@@]2(O)[C@H](OC(=O)c3ccccc3)C1[C@]4(OC(C)=O)[C@@H](O)[C@@H]2OC (some centres not stated)"
  Answer Label: "F"
- Molecule: "Clc1ccc(COC(Cn2ccnc2)c2ccc(Cl)cc2Cl)cc1 (configuration not stated)"
  Answer Label: "T"
- Molecule: "C=CCS(=O)C[C@H](N)C(=O)O (some centres not stated)"
  Answer Label: "F"
- Molecule: "O=C(O)COc1ccc(Cl)cc1Cl"
  Answer Label: "F"
- Molecule: "CC(=O)OC/C=C(\\C)CC/C=C(\\C)CC/C=C(\\C)CC/C=C(\\C)CC/C=C(\\C)CC/C=C(\\C)CC/C=C(\\C)CC/C=C(\\C)CCC=C(C)C"
  Answer Label: "F"
- Molecule: "NC1(C(=O)O)CC1"
  Answer Label: "F"
- Molecule: "C[C@@H]1CC2C3CCC4=CC(=O)C=C[C@]4(C)[C@@]3(F)[C@@H](O)C[C@]2(C)[C@@]1(O)C(=O)CO (some centres not stated)"
  Answer Label: "F"
